B1: Pistol ribozyme (parent)
chain: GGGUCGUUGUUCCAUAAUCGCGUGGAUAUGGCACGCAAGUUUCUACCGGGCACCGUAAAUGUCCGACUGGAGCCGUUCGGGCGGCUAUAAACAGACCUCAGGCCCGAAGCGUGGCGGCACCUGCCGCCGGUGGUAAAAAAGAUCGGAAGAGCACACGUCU

Variants of: B1
Assay: aptazyme ON/OFF ratio, guanine; higher = stronger switching; co-transcriptional cleavage with and without guanine
readout_kind: aptazyme ON/OFF ratio
Please reply with the number alone, leaving off any unit.

These solved cases illustrate the format of a correct answer.
| mutation_annotation | aptazyme ON/OFF ratio |
| --- | --- |
| U8C U10C C13G | 1.26 |
| U7C U8G G9C U11C C12U C13G | 1.07 |
| U7A U8C G9U U10G U11A C12U C13A | 1.06 |
| U7A U8C G9A U10A U11C C12G C13A | 1.09 |
| U7C U8A U10G U11G C12G C13A | 1.08 |
| U7C U8G G9C U10G U11C C12A | 1.24 |
| U8G G9A U10A U11C C12G C13U | 1.36 |
| U7A G9C U10G U11C C12U C13U | 1.09 |
| U7A G9U U10G U11A C13A | 1.09 |
| U7G C12U | 1.39 |

Record request: aptazyme ON/OFF ratio value, item U7G U8G G9A U11C C12A
1.5
